Reported growth values for the following molecules.
- System: SW-620 colon
- Assay Info: NCI-60 one-dose screen, 48 h (100 = growth as untreated, 0 = no growth, -100 = all killed)
- Condition Description: 10 µM unless noted
About 83,000 compounds went through this panel and 20% of them were active in at least one assay; those are over-represented in the sample as a whole.
// note: answer is a bare numeric in %

Molecule	Readout Value
COc1ccc(-n2c(C(O)c3ccccc3)nn(CN3CCOCC3)c2=S)cc1 (stereo not given)	87

Return reported growth; argument: "COc1ccc2sc3c(NCCCN)nc4ccccc4c3c(=O)c2c1" -75

Fill in the blank: the reported growth of COc1ccc(C2Nc3ncnc(N)c3N=C3c4ccccc4C(=O)C32)cc1 (stereo not given) is ____. 103

I have this molecule here, "COc1cc(/C=C/C(=O)c2c(C)nc3ccccc3c2/C=C/c2ccccc2)cc(OC)c1OC" , and I need its recorded growth. 0.233

State the recorded growth for this entry: COc1cc(C2C(C#N)=C(N)OC3=C2C(=O)c2ccccc2C3=O)cc(OC)c1OC (stereo not given) 21.5
